Target: Glycogen synthase kinase-3 beta (Homo sapiens, UniProt P49841)
Sequence (P49841 whole entry): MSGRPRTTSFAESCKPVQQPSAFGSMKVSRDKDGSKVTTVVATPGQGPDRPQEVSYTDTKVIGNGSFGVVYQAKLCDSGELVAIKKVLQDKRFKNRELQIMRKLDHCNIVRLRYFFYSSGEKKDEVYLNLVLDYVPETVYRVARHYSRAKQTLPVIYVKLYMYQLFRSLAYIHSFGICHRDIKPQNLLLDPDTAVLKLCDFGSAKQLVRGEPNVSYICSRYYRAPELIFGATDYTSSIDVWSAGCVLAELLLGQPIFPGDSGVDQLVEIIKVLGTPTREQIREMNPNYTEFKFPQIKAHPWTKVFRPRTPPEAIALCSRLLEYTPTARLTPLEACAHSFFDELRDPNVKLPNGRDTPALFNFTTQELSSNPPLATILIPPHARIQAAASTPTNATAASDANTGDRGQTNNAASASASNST
Assay: Inhibition of human recombinant GSK3beta using prephosphorylated GS1 peptide as substrate after 1 hr by liquid scintillation spectrometry
I'd appreciate it if you could supply pIC50 values for the items below.
Answer as the number alone; pIC50 is minus log10 of concentration in mol/L.

Enquiry: Please look up its pIC50: Cn1c(NCC(=O)c2ccc(F)cc2)nc(-c2ccncc2)cc1=O
Return: 7.28

Enquiry: GET /values?readout=pIC50&item= Cn1c(NCC(O)c2ccccc2)nc(-c2ccncc2)cc1=O (centres undefined)
Return: 7.64

Enquiry: # input molecule: Cn1c(OCCc2ccccc2)nc(-c2ccncc2)cc1=O ; wanted: its pIC50
Return: 6.70

Enquiry: pIC50 for Cn1c(N(CCCCN)CCc2ccccc2)nc(-c2ccncc2)cc1=O ?
Return: 6.89

Enquiry: GET /values?readout=pIC50&item= CC(C)Cc1nc(-c2ccncc2)cc(=O)[nH]1
Return: 5.62

Enquiry: # input molecule: O=c1cc(-c2ccncc2)nc(-c2ccccc2)[nH]1 ; wanted: its pIC50
Return: 5.74

Enquiry: Dear colleague, I am looking for the recorded pIC50 of the following molecule: Cc1cccc(C(=O)CNc2nc(-c3ccncc3)cc(=O)n2C)c1
Return: 7.42

Enquiry: Fill blank: measured pIC50 of the molecule Cc1nc(-c2ccncc2)cc(=O)[nH]1 is ____.
Return: 5.52

Enquiry: Please look up its pIC50: Cn1c(NCCc2ccccc2)nc(-c2ccncc2)cc1=O
Return: 7.15

All figures here come from ChEMBL document CHEMBL3091320.
